- tested on: carboxylesterase 1 (CE1) (Homo sapiens, UniProt P23141)
- Sequence (P23141 whole entry): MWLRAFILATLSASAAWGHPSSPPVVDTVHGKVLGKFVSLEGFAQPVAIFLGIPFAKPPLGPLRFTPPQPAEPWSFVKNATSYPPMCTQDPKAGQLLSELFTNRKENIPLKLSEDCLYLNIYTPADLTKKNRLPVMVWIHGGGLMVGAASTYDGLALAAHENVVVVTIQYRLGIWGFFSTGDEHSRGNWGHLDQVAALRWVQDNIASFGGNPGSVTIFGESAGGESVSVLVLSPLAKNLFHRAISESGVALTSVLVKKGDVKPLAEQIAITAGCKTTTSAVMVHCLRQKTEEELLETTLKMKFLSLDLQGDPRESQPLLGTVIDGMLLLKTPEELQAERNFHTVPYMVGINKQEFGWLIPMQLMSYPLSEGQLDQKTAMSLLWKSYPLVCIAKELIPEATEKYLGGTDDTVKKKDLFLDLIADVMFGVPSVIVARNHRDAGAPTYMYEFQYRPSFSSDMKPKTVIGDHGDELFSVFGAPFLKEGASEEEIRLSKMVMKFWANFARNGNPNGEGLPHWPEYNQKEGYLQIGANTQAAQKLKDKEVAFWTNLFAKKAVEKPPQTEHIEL
- assay info: Irreversible inhibition of human CE1 assessed as residual activity preincubated with enzyme followed by compound dilution measured after 18 hrs using o-NPA as substrate relative to control
- measurement parameters: probe o-NPA, read-out: Activity
compounds and their reported activity at 18 h
Enter your answer as a number in %; do not include the unit.

Example results:
>  <structure as smiles>
O=C(C(=O)c1ccccc1)c1ccccc1

>  <activity at 18 h / %>
85

$$$$
>  <structure as smiles>
Cc1cccc2c1ccc1c3occ(C)c3c(=O)oc(=O)c21

>  <activity at 18 h / %>
54

$$$$

Now for the compound whose activity at 18 h we want.
## Input Provide measured activity at 18 h value, entry: `Cc1cccc2c1ccc1c3c(c(=O)oc(=O)c12)[C@@H](C)CO3`
## Output 9

* * *

- tested on: Cholinesterase (Homo sapiens, UniProt P06276)
- Sequence (P06276 whole entry): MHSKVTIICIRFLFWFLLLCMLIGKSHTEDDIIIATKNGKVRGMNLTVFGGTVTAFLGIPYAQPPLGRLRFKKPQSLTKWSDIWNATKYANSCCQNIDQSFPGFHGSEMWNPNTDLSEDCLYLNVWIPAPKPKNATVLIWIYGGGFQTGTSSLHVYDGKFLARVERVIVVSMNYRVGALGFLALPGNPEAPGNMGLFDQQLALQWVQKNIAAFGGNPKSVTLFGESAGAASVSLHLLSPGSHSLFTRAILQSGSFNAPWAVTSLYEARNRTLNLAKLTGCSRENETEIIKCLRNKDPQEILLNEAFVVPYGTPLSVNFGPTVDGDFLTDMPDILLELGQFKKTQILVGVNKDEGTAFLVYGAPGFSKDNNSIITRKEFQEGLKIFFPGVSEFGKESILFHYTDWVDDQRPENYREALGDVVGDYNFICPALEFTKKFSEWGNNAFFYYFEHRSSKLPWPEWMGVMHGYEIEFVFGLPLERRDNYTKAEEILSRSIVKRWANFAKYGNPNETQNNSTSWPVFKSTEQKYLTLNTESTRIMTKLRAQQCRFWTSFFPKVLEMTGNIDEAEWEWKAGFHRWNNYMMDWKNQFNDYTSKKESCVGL
- assay info: Inhibition of human BuChE at 10 uM using butyrylhiocholine as substrate relative to control
reported property: inhibition (%)
Enter your answer as a number in %; do not include the unit.

>  <structure as smiles>
Cc1coc2c1c(=O)oc(=O)c1c3c(ccc12)C(C)(C)CCC3

>  <unit text>
%

>  <inhibition>
38

$$$$

## Input Provide measured inhibition value, entry: `Cc1cccc2c1ccc1c3occ(C)c3c(=O)oc(=O)c21`
## Output 32

## Input Provide measured inhibition value, entry: `Cc1cccc2c1ccc1c3c(c(=O)oc(=O)c12)[C@@H](C)CO3`
## Output 61

## Input Provide measured inhibition value, entry: `C[C@H]1COc2c1c(=O)oc(=O)c1c3c(ccc21)C(C)(C)CCC3`
## Output 69
